Origin of the recorded values: patent US20230295298A1

- Assayed System: T1, human recombinant A33 antigen (human, UniProt Q99795 22-235)
- T1 construct: also called rH-GPA33; rHGPA33
- T1 sequence: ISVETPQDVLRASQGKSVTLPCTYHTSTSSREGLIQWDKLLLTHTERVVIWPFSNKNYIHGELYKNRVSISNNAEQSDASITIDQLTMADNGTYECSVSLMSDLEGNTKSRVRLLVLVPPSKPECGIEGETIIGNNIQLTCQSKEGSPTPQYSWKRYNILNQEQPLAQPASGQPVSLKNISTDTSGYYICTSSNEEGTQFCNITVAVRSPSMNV
- Experiment Summary: rH-GPA33 binding ELISA, 2ug/mL of 31.1, supernatant
Catalogue of binders with associated OD Value of rH-GPA33 Binding ELISA
# number only, unit OD dropped from output

Known OD Value of rH-GPA33 Binding ELISA results, listed for orientation:
Binder: humanized 31.1 antibody #9 (sdr-HC + cdr-LC) (antibody, human IgG1, kappa, V domains shown, Full heavy and light chains; transient Expi293 expression, tested as culture supernatant; also called Sample ID 9; sdr31.1-HC + cdr31.1-LC) VH: QIQLVQSGAEVKKPGASVKVSCKASGYTFTNYGMNWVRQAPGKGLEWMGWINPYTGEPTYAQKFQGRVTFTLDTSISTAYMELSRLRSDDTAVYFCARAYYGKYFDYWGQGTTVTVSS VL: SIVMTQSPSSLSASVGDRVTITCKASQSVSNDVAWYQQKPGQSPKLLIYYASNRYTGVPDRFSGSGYGTDFTLTISSLQPEDFAVYFCQQDYSSPLTFGAGTKLEIKR
Experimental Readout: OD Value of rH-GPA33 Binding ELISA
Measured Number: 0.07

Binder: humanized 31.1 antibody #7 (abb-HC + sdr-LC) (antibody, human IgG1, kappa, V domains shown, Full heavy and light chains; transient Expi293 expression, tested as culture supernatant; also called Sample ID 7; abb31.1-HC + sdr31.1-LC) VH: QIQLVQSGAEVKKPGASVKVSCKASGYTFTNYGMNWVRQAPGKGLEWMGWINTYTGEPTYAQKFQGRVTFTLDTSISTAYMELSRLRSDDTAVYFCARAYYGKYFDYWGQGTTVTVSS VL: SIQMTQSPSSLSASVGDRVTITCRASQSISNDLAWYQQKPGQSPKLLIYYASNRYTGVPDRFSGSGYGTDFTLTISSLQPEDFAVYFCQQDYSSPLTFGAGTKLEIKR
Experimental Readout: OD Value of rH-GPA33 Binding ELISA
Measured Number: 0.2

Switching to the query record.
Sure, the documented OD Value of rH-GPA33 Binding ELISA for humanized 31.1 antibody #1 (cdr-HC + cdr-LC) (antibody, human IgG1, kappa, V domains shown, Full heavy (448 aa) and light (214 aa) chains; transient Expi293 expression, tested as culture supernatant; also called Sample ID 1; cdr31.1-HC + cdr31.1-LC) VH: QIQLVQSGAEVKKPGASVKVSCKASGYTFTNYGMNWVKQAPGKGLKWMGWINTYTGEPTYADDFKGRFAFTLDTSISTAYMELSRLRSDDTAVYFCARAYYGKYFDYWGQGTTVTVSS VL: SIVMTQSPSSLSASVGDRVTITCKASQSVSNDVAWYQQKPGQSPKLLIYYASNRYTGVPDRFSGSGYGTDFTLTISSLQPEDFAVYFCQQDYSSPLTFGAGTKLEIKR is 0.8
